biological target: KGF (Homo sapiens); construct: made in house; assay: KGF radioimmunoassay: immunoprecipitation of [125I]-KGF by monoclonal antibody 1G4; format: binding; conditions: consistent with data from receptor binding assay and RIA; read-out: Kd for KGF/peptide interactions
pKd: −log10 of the molar value. No end group written: not given here.
Reported Endpoint: pKd

// pKd lookup, sequence = HSGINSSNAEVLALFNVTEMDAGEY [peptide 412] , result: 5.70 to 6.00

----------
target: KGF (Homo sapiens, UniProt P21781); construct: made in house; test: KGF radioimmunoassay: immunoprecipitation of [125I]-KGF by monoclonal antibody 1G4; format: binding; conditions: KGF RIA; read-out: concentration required to achieve 50% displacement of [125I]-KGF from 1G4
Sequence (P21781 32-194): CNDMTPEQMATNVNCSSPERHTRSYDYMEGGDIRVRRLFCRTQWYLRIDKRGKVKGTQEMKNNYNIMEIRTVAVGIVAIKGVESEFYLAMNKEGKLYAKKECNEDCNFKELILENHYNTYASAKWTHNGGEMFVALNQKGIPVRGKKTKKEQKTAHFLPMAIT
No end group written: not given here.
Reported Endpoint: IC50

// IC50 lookup, sequence = HSGINSSNAEVLALFNVTEMDAGEY [peptide 412] , result: ~1 µM
